biological target: MCR1 (human, UniProt Q01726 1-317); experiment: cell-based or functional assay
Sequence (Q01726 whole entry): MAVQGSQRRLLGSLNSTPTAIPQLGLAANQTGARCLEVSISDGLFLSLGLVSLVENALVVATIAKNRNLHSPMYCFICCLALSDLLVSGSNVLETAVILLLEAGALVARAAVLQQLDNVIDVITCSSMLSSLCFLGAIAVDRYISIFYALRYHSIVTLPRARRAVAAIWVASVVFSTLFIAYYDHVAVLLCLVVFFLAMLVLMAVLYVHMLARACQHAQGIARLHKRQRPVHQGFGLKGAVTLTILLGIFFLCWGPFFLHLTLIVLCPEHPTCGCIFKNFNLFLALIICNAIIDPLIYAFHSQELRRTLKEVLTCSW
Square brackets hold non-standard residues; d marks the D form. Ends that are not written are not given here. Nle = CCCC[C@H](N)C(=O)O
Observation Type: MCR1 EC50 (nM); cAMP production, LANCE cAMP assay, CHO-MCR1 cells, cell pool C
Quick reminder: number only, in nM, skip the unit.

Look over these answered cases.
Binder: SYSMEHFRWGKPVGKKAAAVKVYPGGGSSYS[Nle]EH[dF]RWGKPV (ends and bridges not checked) [ACTH1-24-point-3-5-4aa-NDP-α-MSH]
Endpoint Value: 0.3
--
Binder: SYSXEHXRWGKPVGKKRRPVKVYP (Nle and DPhe as printed: SYS-Nle-EH-DPhe-RWGKPVGKKRRPVKVYP) [NDP-ACTH]
Endpoint Value: 0.11

The record that follows has no MCR1 EC50 (nM); cAMP production, LANCE cAMP assay, CHO-MCR1 cells, cell pool C shown yet.
MCR1 EC50 (nM); cAMP production, LANCE cAMP assay, CHO-MCR1 cells, cell pool C in this record for SYSMEHFRWGKPVGKKRRAVKVYP [ACTH1-24-point-5] : 0.31
